experiment: viability loss in Ba/F3 EpoR-JAK2V617F cells, confirmation, JAK2V617F inhibitor project, cell-based, luminescence, triplicate (AID 1521); conditions: CellTiter-Glo luminescence, at 5.6 µM;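 further: higher means lower luminescence from reduced cell ATP and viability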
This is one part of the list. Activity calls are given as the source filed them.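 How the source made its calls: active means mean inhibition above the hit cutoff derived in the earlier primary screen (cut at about 25% in these data); inactive means the rest.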
In this exercise, the only acceptable responses are active, inactive

Use these answered entries as a reference point.
{"columns": ["compound", "category label"],
 "data": [
  ["N#C/C=C\\Oc1ccc(Cl)cc1N", "active"],
  ["CCn1c(/C=C/c2ccc([N+](=O)[O-])o2)nc2ccccc2c1=O", "active"],
  ["Cc1ccc(C2=NN(C)c3nc4ccccc4n3C2)cc1", "inactive"],
  ["Cc1ccc(NC(=S)N(CCCN2CCC(C)CC2)Cc2ccco2)cc1", "active"],
  ["COc1ccc(OC)c(Nc2nc(-c3ccc(O)c(O)c3)cs2)c1", "active"]
]}

Inquiry: What classification did c1ccc2c(c1)CSc1sccc1C2=C1CCNCC1 end up with in this test?
Reply text: active

Inquiry: What classification did O=c1oc2ccccc2cc1-c1cn(-c2ccccc2)c(=S)[nH]1 end up with in this test?
Reply text: active

Inquiry: What classification did CCC1CCCCN1CCCNC(=O)c1cc2c(Cl)nc3ccccc3c2s1 (stereo not given) end up with in this test?
Reply text: inactive

Inquiry: What classification did COc1ccc(Cc2nnc(N/N=C/c3ccccc3O)[nH]c2=O)cc1OC end up with in this test?
Reply text: active

Inquiry: What classification did CCCn1c(NC(=O)C23CC4CC(CC(O)(C4)C2)C3)nc2ccccc21 end up with in this test?
Reply text: inactive
